B1: TPR t1 (parent)
chain: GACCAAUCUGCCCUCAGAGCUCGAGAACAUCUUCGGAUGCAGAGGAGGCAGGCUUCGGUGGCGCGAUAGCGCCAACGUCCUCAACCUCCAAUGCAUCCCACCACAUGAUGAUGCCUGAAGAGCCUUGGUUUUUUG

# Variants of: B1
# ASSAY: polymerase ribozyme fitness, log enrichment relative to wild type (log ratio); higher = more active; in vitro selection for triplet polymerase activity
Provide the reported polymerase ribozyme fitness (log ratio) of each item.
Please reply with the number alone, leaving off any unit.

Quick note, polymerase ribozyme fitness (log ratio) for GACCAAUCUGCCCUCAGAGCUCGAGAACAUCUUCGGAUGCAGAGGAGGCAGGCUUCGGUGGCGCGAUAGCGCCAACGUCCUCAACCUCCAAUGCCUUCCAGCACAUGAUGAUGCCUGAAGAGCCUUGGUUUUUUG [A95C C97U C101G] landed at -3.36

response.value for GACCAAUCUGCCCUCAGAGCACGAGAACAUCUUCGGAUGCAGAGGAGGCAGGCUUCGGUAGCGCGAUAGCGCCUACGUCCUCAACCUCCAAUGCAUCCCUCCACAUGAUGAUGCCUGAAGAGCCGUGGUUUAUUG [U21A G60A A74U A100U U125G U132A] (field: polymerase ribozyme fitness (log ratio)) = -0.987

In plain terms, GACCAAUCUGCCCUCAGAGCUCGAGAACAUCUUCGGAUGCAGAGGAGGCAGGCUUCGGUGGCGCGAUAGCGCCAACGUCCUCAACCUGCAAUGCAUCCCACCACAUGAUGAUGCCUGAAGAGCGUUGGUUUUUUG [C88G C124G] has a documented polymerase ribozyme fitness (log ratio) of 1.77

Documented polymerase ribozyme fitness (log ratio) of GACCAAUCUGCCCUCAGAGCUCGAGAACAUCUUCGGAUGCAGAGUAGGCAGGCUUCGGUGGCGCGAUAGCGCCAACGUCCUCAACCUCCAAUGCAUCCCACCACCUGAUGAUGCCUGAAGAGCCUUGGUUUUUUG [G45U A105C] : -4.28

What the record says about GACCAAUCUGCCAUCAGAGCUCGAGAACAUCUUCGGAUGCAGAGGAGGCAGGCUUCGGUGGCGCGAUAGCGCGAACGUCCUCAACCUCCAAUGCAUCCCACCACAUGAUGAUGCCUGAAAAGACUUGGUUUUUUG [C13A C73G G120A C123A] : polymerase ribozyme fitness (log ratio) is -1.91

Lab note: GACCAAUCUGCCCUCAGAGCUCGAGAACAUCUUCGGAUGCAGAGGAGGCAGGGUUCGGUGGCGCGAUAGCGCCAACGUCCUCAACAUCCAAUGCAUCCCACCACAUGAUGAUGCCUGAAGAGCCUUGGUUUUUUG [C53G C86A] gave polymerase ribozyme fitness (log ratio) of -1.75

The reported value for GACCAAUCUGCCCUCAGAGCUCGAGAACAUCUUCGGAUGCAGAGGAGGCAGGCUUCGGUUGCGCGAUAGCGCCAACGUCCUCAACCUCCAAUGCAUCCCACCACAGGAUGAUGCCUGAAGAGCCUUGGUUUUUUG [G60U U106G] in terms of polymerase ribozyme fitness (log ratio) is -1.17

The recorded polymerase ribozyme fitness (log ratio) for GACCAAUCUGCCCUCAGAGCUCGAGAACAUCUUCGGAUGCAGAGGAGGCAGGCUUCGGUUGCGCGAUAGCGCCAACGUCCUCAACCUCCAAUGCAUCCCACCACAUGAUGGUGCCUGAAGAGCCUAGGUUUUUUG [G60U A111G U126A] is -1.33

Record GACCAAUCUGCUCUCAGAGCUCGAGAACAUCUUCGGAUUCAGAGGAGGCAGGCUACGGUGGCGCGAUAGCACCAACGUCCUCAACCUCCAAUGGAUCCCACAACAUGAUGAUUCCUGAAGAGCCUUGGUUUUUUG [C12U G39U U55A G71A C94G C102A G113U] . Reported polymerase ribozyme fitness (log ratio): -6.81

Recorded polymerase ribozyme fitness (log ratio) (variant GACCAAUCUGCCCGCAGAGCUCGAGAACAUCUUCGGAUGCAGAGGAGGCAGGCUUCGGUGUCGCGAUAGCGCCAACGUCCUCAACCUCCAAUGCAUCCCACCACAUGAUGAUGCCUGAAGAGCCUUGGUUUUUUG [U14G G61U] ): -1.11

// field: polymerase ribozyme fitness (log ratio); key: GACCAAUCUGCCCUCAGAGCUCGAGAACAUCUUCGGAUGCAGAGUAGGCAGGCUUCGGUGGCGCGAUAGCGCCAACGUCCUCAACCUCCAAUGCAUCCCACCACAUGAUGAUGACUGAAGAGCCUUGGUUUUUUG [G45U C114A] ; value = -0.0443

Per the record, GACCAAUCUGCCCUCAGAGCUCGAGAACAUCUUCGGAUGCAGAGGAGGCAGGCUUCGGUGGCGCGAUAGCACCAACGUCCUCAACCUCCAAUGCAUCCCACCACAUGAUGAUGCCUGAACAGCCUUGGUUUUUUG [G71A G120C] has polymerase ribozyme fitness (log ratio) of 0.139

response.value for GACCAAUCUGCCCUCAGAGCUCGAGAACAUCUUCGGAUGCAGAGGAGGCAGGCUUCGGUGGCGCGAUAGCGCCAACGUCCUGAACCUCCAAUGCAUCCCACCACAUGAUGAUGCCGGAAGAGCCUUGGUUUUUUG [C82G U116G] (field: polymerase ribozyme fitness (log ratio)) = -2.05

Field polymerase ribozyme fitness (log ratio) (entry GACCAAGCUGCCCUAAGAGCUCGAGAACAUCUUCGGACGGUGAGGAGUCAGGCUUCGGUGGCGCGAUAACGCCAACGUCCUCAACCUCAAAUGCAGCUCACCACAUGAUGGUGCCUGAAGAGCCUUGGUUUUUUG [U7G C15A U38C C40G A41U G48U G69A C89A U96G C98U A111G] ) reads -7.66

Query GACCAAUCUGCCCUCAGAGCUCGAGAACAUCUUCGGAUGCAGAGGAGGCAGGCUUCAGUGGCGCGAUAUCGCCAACGUCCUCAACAUCCAAUGCAUCCCAGCACAUGAUGAUGCCUGAAGAGCCUUGGUUUUUUG [G57A G69U C86A C101G] yields polymerase ribozyme fitness (log ratio) of -2.75

Entry GACCAAUCUGCCCUCAGAGCUCGAGAACAUCUUCGGAUGCAGAGAAGGCAUGCUUCGGUGGCGCGAUAGCGCCAACGUCCUCAACCUCCAAUGCAUCCCACCACAUGAUGAUGCCUGAAGAGCCUUGGUUUUUUG [G45A G51U] , polymerase ribozyme fitness (log ratio) reported as -4.34

For this variant ( GACCAAUCUGCCCUCAGAGCUCGAGAACAUCUUCGGAUGCAGAGGAGGCAGGCUUCGGUGGUGCGAUAGCGCCAACGCCCUCAACCUCCAAUGCAUCCCACCACAUGAUGAUGCCUGAAGAGCCUUGGUUUUUUG [C62U U78C] ), measured polymerase ribozyme fitness (log ratio) is -0.402

polymerase ribozyme fitness (log ratio) for GACCAAUCUGCCCUCAGAGCUCGAGAACAUCUUCGGAUGCAGAGGAGGCAGGCUUCGGUCGCGCGAUAGCGCCAACGACCUCAACCUCCAUUGCAUCCCACCACAUGAUGAUGCCUGAAGAGCCUUGGUUUUUUG [G60C U78A A91U] is -2.07

# polymerase ribozyme fitness (log ratio) (variant: GACCAAUCUGCCCUCGGAGCUCGAGAACAUCUUCGGAUGCAGAGGAGGCAGGCUUCGGUGGUGCGAUAGCGCCAACGUCCUCAACCUCCAAUGCAUCCCACCACAUGAUGAUGCCUGAAGAGCCUUGGUUUUUUG [A16G C62U] ) is -1.57

Record summary for GACCAAUCUGCUCUCAGAGCUCGAGAACAUCUUCGGAUGCAGAGGAGGCAGGCUUCGGUGGCGCGAUAGCGGCAACGUCCUCAACCUCCAAUGCAUCCCACAACAUGAUGAUGCCUGAAGAGCCUUGGUUUUUUG [C12U C72G C102A] : reported polymerase ribozyme fitness (log ratio) = -2.37

Documented polymerase ribozyme fitness (log ratio) of GACCUAUCUGCCCUCAGAGCUCGAGAACAUCUUCGGAUGCAGAGGAGGCAGGCUUCGGUGGCCCGAUAGCGCCAACGUCCUCAACCUCCAAUGCAUCCCACCACAUGAUGAUGCCUAAAGAGCCUUGGUUUUUUG [A5U G63C G117A] : -3.54

Lookup result for GACCUAUCUGCCCUCAGAGCUCGAGAACAUCUUCGGAUGCAGAGGAGGCAGGCUUCGGUGACGCGAUAGCGCCAACGUCCUCAACCUCCAAUGCAUCCCACCACAUGAUGAUGCCUGAAGAGCCUUGGUUUUUUG [A5U G61A] ; measured polymerase ribozyme fitness (log ratio): -0.0027
